- Test system: MDA-N
- Procedure Details: NCI tumour cell line growth inhibition, 48 h
Active and inactive are the calls of the source. Rule as the data show it: active = GI50 up to about 1.1 µM and inactive = higher.
Below is a list of entries, each paired with its recorded GI50 value.

Please review the following examples before continuing.
CCOC(=O)c1c(N2CCCC2)[nH]c(=O)c(C(c2cccs2)c2c(O)c(C(=O)OCC)c(N3CCCC3)[nH]c2=O)c1O; > 100 µM (inactive)
COc1cc(OC)c(OC)cc1/C=C\c1ccnc2ccccc12; 0.185 µM (active)
CC1=NNC(=O)C1C1CC(c2c[nH]c3ccccc23)=NNC1=S (centres undefined); > 100 µM (inactive)
CC(C)c1cc(C(C)C)c(B(c2ccccc2)c2ccccc2)c(C(C)C)c1B(c1ccccc1)c1ccccc1; > 100 µM (inactive)
COC(=O)NNc1c([N+](=O)[O-])cnn(-c2ccccc2)c1=O; 2.85 µM (inactive)

**Q:** Fill in: GI50 of Nc1ccn(C2CC(O)C(COP(=O)(S)OC3CC(n4ccc(N)nc4=O)OC3CO)O2)c(=O)n1 (centres undefined) is ___
**A:** 4.93 µM (inactive)

**Q:** Try this compound too: COC(=O)C1CCCN1C(=O)OC(C)(C)C (centres undefined)
**A:** > 100 µM (inactive)

**Q:** Try this compound too: COC1(OC)C[C@H](C)[C@@]23O[C@]24C2=CC(=O)C=CC2=N[C@H]3C#C/C=C\C#C[C@]14O
**A:** 1.08 µM (active)

**Q:** Try this compound too: CCN1CCC(O)(/C=C/c2ccc(C(C)C)cc2)C(C(=O)/C=C/c2ccc(C(C)C)cc2)C1 (centres undefined)
**A:** 2.37 µM (inactive)

----------
- Test system: SK-MEL-5
- Procedure Details: NCI tumour cell line growth inhibition, 48 h
The source made the active and inactive calls. Rule as the data show it: active = GI50 up to about 1.1 µM and inactive = higher.
Choose one outcome from this list and give only that: active, inactive

**Q:** Could you kindly confirm the outcome this assay logged for C=COC(=O)N1C2CCCC(Cl)(C(C)=O)C1CC2 (stereo not given) ?
**A:** inactive

**Q:** Try this compound too: Brc1nc2c3ccccc3ncn2c1Br
**A:** inactive

**Q:** Try this compound too: CCOC(=O)NNC(=O)NCCNC(=O)NNC(=O)OCC
**A:** inactive

**Q:** Try this compound too: CC1CCC2(OCCO2)[C@]2(C)CC(O)C(=O)C=C12 (stereo not given in full)
**A:** inactive

----------
- Test system: OVCAR-8
- Procedure Details: NCI tumour cell line growth inhibition, 48 h
The source made the active and inactive calls. Cut-off read from the data, not from the text of the source: active = GI50 up to about 1.1 µM and inactive = higher.
Below is a list of entries, each paired with its recorded GI50 value.

**Q:** Fill in: GI50 of C=C1c2nc3ccccc3n2C=C(c2ccc(OC)cc2)N1c1ccc(OCCN2CCOCC2)cc1 is ___
**A:** 6.03 µM (inactive)

**Q:** Try this compound too: Cc1cc2c(cc1C)C(=O)C1(C2)Cc2c(C)ccc(C)c2C1=O (stereo unspecified)
**A:** > 100 µM (inactive)

**Q:** Try this compound too: COC(=O)c1cc(=O)nc2cc3cccccc3n12
**A:** > 100 µM (inactive)

----------
- Test system: SF-295
- Procedure Details: NCI tumour cell line growth inhibition, 48 h
The source made the active and inactive calls. Cut-off read from the data, not from the text of the source: active = GI50 up to about 1.1 µM and inactive = higher.
Choose one outcome from this list and give only that: 1.0 (active), 0.0 (inactive)

Example results:
COc1cc(-c2cc(-c3ccccc3)nc(-c3c(OC)ccc4c(C)cc(=O)oc34)c2)cc(OC)c1OC; 0.0
Cc1cc2c(cc1C(=O)CCC(=O)O)CC1(C2)Cc2cc(C)c(C(=O)CCC(=O)O)cc2C1; 0.0
C=C1C(=O)OC2C1C(OC(=O)/C(C)=C/C)CC(O)(CCl)C1C(OC(C)=O)C=C(C)C21O (stereo not given); 0.0
Cc1sc2ccccc2[n+]1CCC(=O)O; 0.0
COc1cc(OC)c(OC)cc1/C=C\c1ccnc2ccccc12; 1.0
C=C1C[C@]23CC[C@@H]4C(CO)(CO)CC(=O)C[C@]4(C)[C@@H]2CC[C@H]1C3; 0.0
CN1CN(C2OC(CO)C(O)C2O)c2nc(N)[nH]c(=O)c21 (stereo not given); 0.0
O=C(/C(=C\c1ccc(Cl)cc1)c1ccccc1)c1ccccc1; 0.0

**Q:** Could you kindly confirm the outcome this assay logged for OCc1ccc2c(c1)CC1(Cc3ccc(/C=N/O)cc3C1)C2 (stereo not given) ?
**A:** 0.0

----------
- Test system: CAKI-1
- Procedure Details: NCI tumour cell line growth inhibition, 48 h
Calls of active or inactive are those of the source. Cut-off read from the data, not from the text of the source: active = GI50 up to about 1.1 µM and inactive = higher.
Choose one outcome from this list and give only that: 1.0 (active), 0.0 (inactive)

CCOC1=NC(=O)CC(c2ccccc2)S1 (configuration not stated); 0.0
O=C(O/N=C1/CCCC/C1=C\c1ccccc1)c1ccc(Cl)cc1; 0.0
CC(NNC(=O)c1ccncc1)c1ccccc1 (configuration not stated); 0.0
FC(F)(F)C1(Cl)C(Cl)(c2ccccc2)C1(Cl)c1ccccc1 (configuration not stated); 0.0

**Q:** Could you kindly confirm the outcome this assay logged for CN(C)Cc1cc(C(=O)O)cc(CN(C)C)c1O ?
**A:** 0.0

**Q:** Try this compound too: c1ccc(/N=C2\c3ccccc3CN2c2ccccc2)cc1
**A:** 0.0

----------
Below is a list of entries, each paired with its recorded GI50 value.
- Tested on: HCT-116
- Procedure Details: NCI tumour cell line growth inhibition, 48 h
The source made the active and inactive calls. Cut-off read from the data, not from the text of the source: active = GI50 up to about 1.1 µM and inactive = higher.

Please review the following examples before continuing.
CCC(C)[C@H]1C(=O)N=C(N)N1C(=O)OCc1ccccc1 (stereo not given in full); > 100 µM (inactive)
COc1ccc(O)c(/C=N/NC(=S)N2CCCCC2)c1; 2.3 µM (inactive)
COc1ccc(OC)c2sc(N3C(=O)/C(=C/c4ccc(N(C)C)cc4)N=C3c3ccccc3)nc12; 34.8 µM (inactive)
CCOC(=O)Cc1[nH]c(C(=O)c2ccccc2)cc1C(=O)c1ccccc1; 17.5 µM (inactive)
CCOC(=O)Cc1csc(NC(NC(=O)OCC)(C(=O)OCC)C(F)(F)F)n1 (stereo not given); > 100 µM (inactive)

**Q:** Fill in: GI50 of CC1NCCc2c1[nH]c1cc(O)ccc21 (stereo not given) is ___
**A:** > 100 µM (inactive)

**Q:** Try this compound too: Nc1ccc(C2NC(=O)Cc3c2ccc2ccccc32)cc1 (stereo not given)
**A:** 81.1 µM (inactive)

**Q:** Try this compound too: CCc1[nH]c(=O)nc(N)c1-c1ccc(N2CCCCC2)c([N+](=O)[O-])c1
**A:** > 100 µM (inactive)

**Q:** Try this compound too: CCOP(=O)(OCC)C(Cc1cn(S(=O)(=O)c2ccc(C)cc2)cn1)C(=O)O (stereo not given)
**A:** > 100 µM (inactive)

**Q:** Try this compound too: CC(=O)NC1=C(C)C(=O)c2c(nc3n2CC[C@H]3OC(C)=O)C1=O
**A:** 1.3 µM (inactive)

----------
- Tested on: CAKI-1
- Procedure Details: NCI tumour cell line growth inhibition, 48 h
Calls of active or inactive are those of the source. No stated cut-off is given here; in the data, active = GI50 up to about 1.1 µM and inactive = higher.
Choose one outcome from this list and give only that: label 1 = active, label 0 = inactive

Example results:
O=C1CC2C(=O)N(Cc3ccccc3)C1C(S(=O)(=O)c1ccccc1)C2S(=O)(=O)c1ccccc1 (centres undefined); label 1
C[C@@H](NC1CCC[C@@H]1O)c1ccccc1 (some centres undefined); label 0
Cc1ccc(NC(=O)C(=O)C2NC(=S)NC2=O)c([N+](=O)[O-])c1 (centres undefined); label 0
O=C(Nc1ccc(/N=N/c2ccccc2)cc1)Sc1ccccc1C(=O)O; label 0
O=C1/C(=c2\c3ccccc3n3c(=O)c4ccccc4nc23)Nc2ccccc21; label 0
O=C1[C@H]2ON(c3ccccc3)C(c3ccccc3)[C@H]2C(=O)N1c1ccc(Cc2ccc(N3C(=O)[C@@H]4ON(c5ccccc5)C(c5ccccc5)[C@@H]4C3=O)cc2)cc1 (some centres undefined); label 0
NC1=NS(=O)(=O)Nc2nc(-c3ccc([N+](=O)[O-])cc3)[nH]c21; label 0
O=c1[nH]nc(-c2ccccc2)n1/N=C/c1cccs1; label 0

Attention now shifts to the item below.
**Q:** Could you kindly confirm the outcome this assay logged for CSc1c([S+](C)[O-])[nH]c2cc(Br)cc(Br)c12 (centres undefined) ?
**A:** label 0

----------
- System: UACC-257
- Procedure Details: NCI tumour cell line growth inhibition, 48 h
The source made the active and inactive calls. No stated cut-off is given here; in the data, active = GI50 up to about 1.1 µM and inactive = higher.
Choose one outcome from this list and give only that: TRUE (active), FALSE (inactive)

CC1=NN(c2nc(N)nc(/C(C#N)=C\C3COc4ccccc4C3=O)n2)C(C)(C)C1 (stereo not given); FALSE
CN(C)CCn1c(=O)c2ccc(NCCCN(C)CCCNc3ccc4c(=O)n(CCN(C)C)c(=O)n5c6ccccc6c(=O)c3c45)c3c(=O)c4ccccc4n(c1=O)c23; TRUE
CCOC(=O)Nc1ccc(S(=O)(=O)I)cc1.CCOC(=O)Nc1ccc(S(=O)(=O)I)cc1.CN(C=O)C1=C(N(C)C=O)C(N(C)C=O)=C(N(C)C=O)C(=O)C1=O; FALSE
Cc1c(N(C)C)ccc2c(=O)c3cccc(CC(=O)O)c3oc12; FALSE

Attention now shifts to the item below.
**Q:** Could you kindly confirm the outcome this assay logged for c1ccc(/N=C2\c3ccccc3CN2c2ccccc2)cc1 ?
**A:** FALSE
